- EXPERIMENTAL_TARGET: murine MEKK2 (mMEKK2) (Mus musculus, UniProt Q61083)
- Sequence (Q61083 whole entry): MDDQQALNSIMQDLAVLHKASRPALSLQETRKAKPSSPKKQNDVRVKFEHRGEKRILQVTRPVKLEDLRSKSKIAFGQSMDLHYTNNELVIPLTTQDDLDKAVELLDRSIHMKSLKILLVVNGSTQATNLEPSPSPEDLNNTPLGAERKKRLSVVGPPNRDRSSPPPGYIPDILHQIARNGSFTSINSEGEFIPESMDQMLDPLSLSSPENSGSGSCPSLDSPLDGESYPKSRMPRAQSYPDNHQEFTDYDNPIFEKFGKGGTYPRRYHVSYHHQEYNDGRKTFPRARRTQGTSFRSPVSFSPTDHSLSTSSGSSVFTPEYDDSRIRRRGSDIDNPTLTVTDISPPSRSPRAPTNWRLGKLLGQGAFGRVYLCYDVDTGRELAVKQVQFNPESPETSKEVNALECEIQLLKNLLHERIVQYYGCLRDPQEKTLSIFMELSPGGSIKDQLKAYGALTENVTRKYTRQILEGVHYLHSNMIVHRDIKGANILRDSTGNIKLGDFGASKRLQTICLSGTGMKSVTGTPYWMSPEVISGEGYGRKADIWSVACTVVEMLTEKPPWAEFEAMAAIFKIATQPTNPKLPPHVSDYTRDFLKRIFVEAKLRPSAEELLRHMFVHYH
- MEASUREMENT_DESCRIPTION: TR-FRET kinase assay (mMEKK2/MBP)
- Assay type: biochemical
- RUN_PARAMETERS: substrate biotin MBP, 60 minutes at room temperature
pIC50: −log10 of the molar value.
MEASURED_ATTRIBUTE: pIC50

Lookup: # returns recorded pIC50 (system: murine MEKK2 (mMEKK2) (Mus musculus, UniProt Q61083)) for COc1cccc(-c2nc(SCc3cccc(NC(=O)COc4ccc(Cl)cc4)c3)[nH]c(=O)c2C#N)c1
Found: > 5.30

Lookup: API: value(readout=pIC50, system=murine MEKK2 (mMEKK2) (Mus musculus, UniProt Q61083)) for record N#Cc1c(-c2cccc(F)c2)nc(SCc2cccc(NC(=O)c3ccc(Cl)c(Cl)c3)c2)[nH]c1=O
Found: > 5.30

Lookup: Under murine MEKK2 (mMEKK2) (Mus musculus, UniProt Q61083): pIC50 value of COc1cccc(-c2nc(SCc3cccc(NC(=O)c4cccc(Cl)c4)c3)[nH]c(=O)c2C#N)c1 ?
Found: > 5.30

Lookup: Find the measured pIC50: item COc1cccc(CC(=O)Nc2cccc(CSc3nc(-c4cccc(OC)c4)c(C#N)c(=O)[nH]3)c2)c1 , target or system murine MEKK2 (mMEKK2) (Mus musculus, UniProt Q61083).
Found: > 5.00

Lookup: Entry COc1cccc(-c2nc(SCc3ccc(NC(=O)c4cc(C(F)(F)F)cc(C(F)(F)F)c4)cc3)[nH]c(=O)c2C#N)c1 , system murine MEKK2 (mMEKK2) (Mus musculus, UniProt Q61083): what pIC50 was measured?
Found: > 5.30

Lookup: pIC50 / murine MEKK2 (mMEKK2) (Mus musculus, UniProt Q61083) / COc1cccc(-c2nc(SCc3ccc(NC(=O)C4=Cc5cc(Cl)ccc5OC4)cc3)[nH]c(=O)c2C#N)c1
Found: > 5.30

Lookup: API: value(readout=pIC50, system=murine MEKK2 (mMEKK2) (Mus musculus, UniProt Q61083)) for record COc1cccc(-c2nc(SCc3cccc(NC(=O)c4ccc(C)cc4)c3)[nH]c(=O)c2C#N)c1
Found: > 5.30

Lookup: Quick check: pIC50 on murine MEKK2 (mMEKK2) (Mus musculus, UniProt Q61083), item COc1cccc(-c2nc(SCc3ccc(NC(=O)c4cccnc4Oc4ccc(Cl)cc4)cc3)[nH]c(=O)c2C#N)c1 ?
Found: < 4.40

Lookup: What is its pIC50 for murine MEKK2 (mMEKK2) (Mus musculus, UniProt Q61083)? Entry: COc1cccc(-c2nc(SCc3cccc(NC(=O)Nc4ccccc4)c3)[nH]c(=O)c2C#N)c1
Found: > 5.30

Lookup: Find pIC50 (murine MEKK2 (mMEKK2) (Mus musculus, UniProt Q61083)) for the entry COc1cccc(-c2nc(SCc3cccc(NC(=O)CCc4ccccc4)c3)[nH]c(=O)c2C#N)c1
Found: > 5.30

Lookup: Item: N#Cc1c(-c2cccc(Cn3cncn3)c2)nc(SCc2cccc(NC(=O)c3ccc(Cl)c(Cl)c3)c2)[nH]c1=O Test system: murine MEKK2 (mMEKK2) (Mus musculus, UniProt Q61083) Read-out: pIC50 Value: ?
Found: < 4.40

Lookup: Param readout = pIC50; param system = murine MEKK2 (mMEKK2) (Mus musculus, UniProt Q61083); param query = COc1cccc(-c2nc(SCc3cccc(NC(=O)c4ccccc4)c3)[nH]c(=O)c2C#N)c1 ; response: value
Found: > 5.30

Lookup: For the record COc1cccc(-c2nc(SCc3cc(NCc4ccc(Cl)c(Cl)c4)ccc3O)[nH]c(=O)c2C#N)c1 , what value of pIC50 is listed for murine MEKK2 (mMEKK2) (Mus musculus, UniProt Q61083)?
Found: > 5.30

Lookup: Value wanted: pIC50 (murine MEKK2 (mMEKK2) (Mus musculus, UniProt Q61083)) of entry COc1ccc(-c2nc(SCc3cccc(NCc4ccc(Cl)c(Cl)c4)c3)[nH]c(=O)c2C#N)cc1OC
Found: > 5.30

Lookup: Value wanted: pIC50 (murine MEKK2 (mMEKK2) (Mus musculus, UniProt Q61083)) of entry COc1cccc(-c2nc(SCc3cc(NCc4ccc(Cl)c(Cl)c4)cc([N+](=O)[O-])c3)[nH]c(=O)c2C#N)c1
Found: > 5.30

Lookup: Checklist item: pIC50 tested on murine MEKK2 (mMEKK2) (Mus musculus, UniProt Q61083), entry COc1cccc(-c2nc(SCc3cccc(NC(=O)c4csc(Cl)c4OC)c3)[nH]c(=O)c2C#N)c1 , value?
Found: > 4.70

Lookup: Recorded pIC50 for COc1cccc(-c2nc(SCc3cccc(NC(=O)c4sccc4C)c3)[nH]c(=O)c2C#N)c1 with murine MEKK2 (mMEKK2) (Mus musculus, UniProt Q61083), please?
Found: > 5.00

Lookup: Entry N#Cc1c(-c2cccc(O)c2)nc(SCc2cccc(NCC3CCN(c4ccncc4)CC3)c2)[nH]c1=O , system murine MEKK2 (mMEKK2) (Mus musculus, UniProt Q61083): what pIC50 was measured?
Found: < 4.40

Lookup: // lookup pIC50 | system=murine MEKK2 (mMEKK2) (Mus musculus, UniProt Q61083) | key= COc1cccc(-c2nc(SCc3ccc(NC(=O)NCCc4cccs4)cc3)[nH]c(=O)c2C#N)c1
Found: > 5.30

Lookup: Report pIC50 for COc1cccc(-c2nc(SCc3ccc(NC(=O)Nc4cccc(C#N)c4)cc3)[nH]c(=O)c2C#N)c1 tested on murine MEKK2 (mMEKK2) (Mus musculus, UniProt Q61083).
Found: > 4.70

Lookup: API: value(readout=pIC50, system=murine MEKK2 (mMEKK2) (Mus musculus, UniProt Q61083)) for record N#Cc1c(-c2ccccc2-c2cc3ccccc3s2)nc(SCc2cccc(NC(=O)c3ccc(Cl)c(Cl)c3)c2)[nH]c1=O
Found: > 5.30

Lookup: Reported pIC50 for murine MEKK2 (mMEKK2) (Mus musculus, UniProt Q61083), given COc1cccc(-c2nc(SCc3ccc(NC(=O)Nc4ccccc4)cc3)[nH]c(=O)c2C#N)c1 ?
Found: > 5.30
